Examples of molecules with documented inhibition follow.
target: Tyrosine-protein phosphatase non-receptor type 22 (Homo sapiens); experiment: LYP phosphatase inhibitors, primary screen, biochemical, DiFMUP fluorescence, recombinant catalytic domain, 10 µM (AID 606); conditions: at 10 µM, active compounds read high
The whole screen tested about 52,000 compounds, of which fewer than 10 were called active. The list is a sample of the results.
Endpoint Name: inhibition

| Molecule | Endpoint Name | Value Observed |
| --- | --- | --- |
| COC(=O)c1c(NC(=O)CC2SCC(C(=O)OC)NC2=O)sc2c1CCCC2 (stereo not drawn) | inhibition | -6.67% (inactive) |
| CCOC(=O)C1CCN(C(=O)CN(C)S(=O)(=O)c2cc(C)ccc2OC)CC1 | inhibition | -35.9% (inactive) |
| Cc1ccc(C2CC(c3ccccc3C)n3nc(N)nc3N2)cc1 (stereo not drawn) | inhibition | 1.78% (inactive) |
| COC(=O)C1=C(C)NC(=O)CC1c1cccc(OC)c1OC (stereo not drawn) | inhibition | -0.77% (inactive) |
| O=C(Oc1ccc(OC(=O)c2ccncc2)cc1)c1ccncc1 | inhibition | 8.57% (inactive) |
| CCOc1cc(C#N)c(NC(=O)c2ccco2)cc1OCC | inhibition | 7.92% (inactive) |
| Cc1nc2ccc(S(=O)(=O)NCC(=O)N(C)Cc3ccco3)cc2s1 | inhibition | 4.87% (inactive) |
| CCOC(=O)C1CCN(C(=O)COc2ccc(N(C)S(=O)(=O)c3cccs3)cc2)CC1 | inhibition | 4.68% (inactive) |
| CC1(C)Cc2c(sc(NC(=O)c3ccco3)c2C#N)CO1 | inhibition | 4.29% (inactive) |
| OCCn1nc2c3ccccc3nc-2n(-c2ccccc2)c1=S | inhibition | 3.81% (inactive) |
| Cc1cc(C(F)(F)F)nc(SCC(=O)Nc2ccccc2)n1 | inhibition | 0.2% (inactive) |
| O=C(CCc1ccccc1)Nc1nnc(-c2cccs2)o1 | inhibition | -13% (inactive) |
| CCC1CCCCN1C(=O)Cn1c(=O)oc2ccccc21 (stereo not drawn) | inhibition | -4.33% (inactive) |
| C=CCNc1nc(NCCN2CCOCC2)nc(OC)n1 | inhibition | 7.44% (inactive) |
| Cc1nc2nc(-c3cccnc3)nn2c(C)c1Cl | inhibition | 14.4% (inactive) |
| CCOC(=O)c1cc2n(n1)C(C(F)(F)C(F)(F)F)CC(C)N2 (stereo not drawn) | inhibition | 15.7% (inactive) |
| CCCCCC(=O)Nc1ccc(N2CCN(S(C)(=O)=O)CC2)cc1 | inhibition | 8.48% (inactive) |
| Cn1c(CCNC(=O)c2cccs2)nnc1SCC(=O)N1CCN(c2ccccc2)CC1 | inhibition | 6.14% (inactive) |
| CC(C)(C)NC(=O)CN(C(=O)c1ccc(CN2CCOCC2)o1)c1ccc2c(c1)OCCO2 | inhibition | -2.48% (inactive) |
| CCNC(=O)CC1C(=O)N(c2ccccc2)C(=O)N1CCC(C)C (stereo not drawn) | inhibition | 5.24% (inactive) |
| COc1ccc(C(=O)NC2(C(F)(F)F)N=C3SCCN3C2=O)cc1 (stereo not drawn) | inhibition | 96.1% (inactive) |
| O=C(NCc1ccccc1)N(Cc1nc2ccccc2c(=O)[nH]1)C1CCCC1 | inhibition | 12.2% (inactive) |
| Cn1nc(-c2ccc(C(=O)Nc3cccnc3)cc2)c2ccccc2c1=O | inhibition | 13.4% (inactive) |
